Every entry's value here was drawn from patent US4783530A.

- tgt: A1 receptor (Rattus norvegicus, UniProt P25099)
- Sequence (P25099 whole entry): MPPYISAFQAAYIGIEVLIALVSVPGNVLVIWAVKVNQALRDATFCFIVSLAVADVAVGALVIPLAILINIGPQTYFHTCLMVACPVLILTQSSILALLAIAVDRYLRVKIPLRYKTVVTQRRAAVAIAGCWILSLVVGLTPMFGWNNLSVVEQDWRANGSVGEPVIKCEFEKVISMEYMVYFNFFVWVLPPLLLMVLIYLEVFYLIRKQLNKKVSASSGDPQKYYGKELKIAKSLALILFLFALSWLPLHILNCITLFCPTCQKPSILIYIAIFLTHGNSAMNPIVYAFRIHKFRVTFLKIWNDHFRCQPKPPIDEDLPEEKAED
- test_details: biochemical
- protocol_conditions: ratio of A2 Ki to A1 Ki
Structures can show the parent of a compound that is named as a salt.
// values below are reported Adenylate cyclase A2 /A1
measure: Adenylate cyclase A2 /A1

1. CCCn1c(=O)c2[nH]c(-c3ccc(Cl)cc3N)nc2n(CCC)c1=O [PACPX, reference compound]    33.4
2. Cl.Cn1c(=O)c2[nH]c(-c3ccc(C(=N)N)cc3)nc2n(C)c1=O.O    2.1
3. CCCn1c(=O)c2[nH]c(-c3ccc(CN)cc3)nc2n(CCC)c1=O.Cl.O    26
4. CCCn1c(=O)c2[nH]c(-c3ccc(C(=N)NC)cc3)nc2n(CCC)c1=O [Pr Pr H C(NH)NHMe, hydrochloride hydrate]    11.7
5. CCCn1c(=O)c2[nH]c(-c3ccc(C(=O)OCC)cc3)nc2n(CCC)c1=O    20
6. CCCn1c(=O)c2[nH]c(-c3ccc(O)c(CN(C)C)c3)nc2n(CCC)c1=O [Pr Pr CH2 NMe2 OH, hydrochloride hydrate]    7
7. CCCn1c(=O)c2[nH]c(-c3ccc(C(=N)N)cc3)nc2n(CCC)c1=O    31.9
